Each record here notes measured viability, T/C.
Test system: HSSY-II complex spheroid growth, percent test/control
MEASUREMENT DESCRIPTION: Anticancer human tumor HSSY-II cell line growth inhibition [Asc];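 further: spheroids exposed to drug for 7 days before reading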
MEASUREMENT CONTEXT: second compound 0.3 µM; first compound 0.01 µM; stronger effect = lower value
The answer is to be given in %; state only the numeric part.

COMPOUND	TESTED SYSTEM	viability, T/C (%)
Cn1ncnc1[C@H]1c2n[nH]c(=O)c3cc(F)cc(c23)N[C@@H]1c1ccc(F)cc1 + CCN1C(C(=O)NC23CCC(C(=O)O)(CC2)CC3)C(c2cccc(Cl)c2F)C2(C(=O)Nc3cc(Cl)ccc32)C12CCCCC2	HSSY-II complex spheroid growth, percent test/control	10.4
O=C(c1ccc(F)c(F)c1Nc1ccc(I)cc1F)N1CC(O)([C@@H]2CCCCN2)C1 + CCN1C(C(=O)NC23CCC(C(=O)O)(CC2)CC3)C(c2cccc(Cl)c2F)C2(C(=O)Nc3cc(Cl)ccc32)C12CCCCC2	HSSY-II complex spheroid growth, percent test/control	25.7
CCN1CCN(Cc2ccc(Nc3ncc(F)c(-c4cc(F)c5nc(C)n(C(C)C)c5c4)n3)nc2)CC1 + CCN1C(C(=O)NC23CCC(C(=O)O)(CC2)CC3)C(c2cccc(Cl)c2F)C2(C(=O)Nc3cc(Cl)ccc32)C12CCCCC2	HSSY-II complex spheroid growth, percent test/control	22.6

// next item, viability, T/C requested
Supply viability, T/C value. Item: NC1CCC(NC2CC2c2ccccc2)CC1 (centres undefined) + CCN1C(C(=O)NC23CCC(C(=O)O)(CC2)CC3)C(c2cccc(Cl)c2F)C2(C(=O)Nc3cc(Cl)ccc32)C12CCCCC2
23.3

* * *

System: HSSY-II complex spheroid growth, percent test/control
MEASUREMENT DESCRIPTION: Anticancer human tumor HSSY-II cell line growth inhibition [Asc];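 further: spheroids exposed to drug for 7 days before reading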
MEASUREMENT CONTEXT: curve of first compound; second compound 10 µM
Overview of recorded pIC50 for various compounds
// returns pIC50 (minus log10 of molar concentration), number only

Below, each entry is followed by its recorded pIC50 result.
COMPOUND	REPORTED RESULT
O=C(c1cc(Cc2n[nH]c(=O)c3ccccc23)ccc1F)N1CCN(C(=O)C2CC2)CC1 + Cc1c(S(C)(=O)=O)c(-c2cc(F)cc(N3CCN(c4ccc(NS(=O)(=O)c5ccc(NC(CCN6CCC(C(=O)OCCCP(=O)(O)O)CC6)CSc6ccccc6)c(S(=O)(=O)C(F)(F)F)c5)cc4)CC3)c2)c(-c2ccc(Cl)cc2)n1C(C)C	5.84
COc1c(OCCCN2CCOCC2)ccc2c3n(c(=NC(=O)c4cnc(N)nc4)nc12)CCN3 + Cc1c(S(C)(=O)=O)c(-c2cc(F)cc(N3CCN(c4ccc(NS(=O)(=O)c5ccc(NC(CCN6CCC(C(=O)OCCCP(=O)(O)O)CC6)CSc6ccccc6)c(S(=O)(=O)C(F)(F)F)c5)cc4)CC3)c2)c(-c2ccc(Cl)cc2)n1C(C)C	7.58
C=C(F)C(=O)N1CCN(c2nc(OCC3CCCN3C)nc3c2CCN(c2cccc4cccc(Cl)c24)C3)CC1CC#N (stereo not drawn) + Cc1c(S(C)(=O)=O)c(-c2cc(F)cc(N3CCN(c4ccc(NS(=O)(=O)c5ccc(NC(CCN6CCC(C(=O)OCCCP(=O)(O)O)CC6)CSc6ccccc6)c(S(=O)(=O)C(F)(F)F)c5)cc4)CC3)c2)c(-c2ccc(Cl)cc2)n1C(C)C	6.00
O=C(c1ccc(F)c(F)c1Nc1ccc(I)cc1F)N1CC(O)([C@@H]2CCCCN2)C1 + Cc1c(S(C)(=O)=O)c(-c2cc(F)cc(N3CCN(c4ccc(NS(=O)(=O)c5ccc(NC(CCN6CCC(C(=O)OCCCP(=O)(O)O)CC6)CSc6ccccc6)c(S(=O)(=O)C(F)(F)F)c5)cc4)CC3)c2)c(-c2ccc(Cl)cc2)n1C(C)C	6.25
CCN1C(C(=O)NC23CCC(C(=O)O)(CC2)CC3)C(c2cccc(Cl)c2F)C2(C(=O)Nc3cc(Cl)ccc32)C12CCCCC2 (stereo not drawn) + Cc1c(S(C)(=O)=O)c(-c2cc(F)cc(N3CCN(c4ccc(NS(=O)(=O)c5ccc(NC(CCN6CCC(C(=O)OCCCP(=O)(O)O)CC6)CSc6ccccc6)c(S(=O)(=O)C(F)(F)F)c5)cc4)CC3)c2)c(-c2ccc(Cl)cc2)n1C(C)C	7.27

Enter measured pIC50, system HSSY-II complex spheroid growth, percent test/control, for the compound shown: Cn1ncnc1[C@H]1c2n[nH]c(=O)c3cc(F)cc(c23)N[C@@H]1c1ccc(F)cc1 + Cc1c(S(C)(=O)=O)c(-c2cc(F)cc(N3CCN(c4ccc(NS(=O)(=O)c5ccc(NC(CCN6CCC(C(=O)OCCCP(=O)(O)O)CC6)CSc6ccccc6)c(S(=O)(=O)C(F)(F)F)c5)cc4)CC3)c2)c(-c2ccc(Cl)cc2)n1C(C)C
8.18

Supply pIC50 measured with HSSY-II complex spheroid growth, percent test/control for CCN1CCN(Cc2ccc(Nc3ncc(F)c(-c4cc(F)c5nc(C)n(C(C)C)c5c4)n3)nc2)CC1 + Cc1c(S(C)(=O)=O)c(-c2cc(F)cc(N3CCN(c4ccc(NS(=O)(=O)c5ccc(NC(CCN6CCC(C(=O)OCCCP(=O)(O)O)CC6)CSc6ccccc6)c(S(=O)(=O)C(F)(F)F)c5)cc4)CC3)c2)c(-c2ccc(Cl)cc2)n1C(C)C .
7.16

Identify measured pIC50 obtained with HSSY-II complex spheroid growth, percent test/control for NC(=O)C(=Cn1cnc(-c2cc(C(F)(F)F)cc(C(F)(F)F)c2)n1)c1cncnc1 + Cc1c(S(C)(=O)=O)c(-c2cc(F)cc(N3CCN(c4ccc(NS(=O)(=O)c5ccc(NC(CCN6CCC(C(=O)OCCCP(=O)(O)O)CC6)CSc6ccccc6)c(S(=O)(=O)C(F)(F)F)c5)cc4)CC3)c2)c(-c2ccc(Cl)cc2)n1C(C)C .
7.88

# return pIC50 for C#Cc1c(F)ccc2cc(O)cc(-c3ncc4c(N5CC6CCC(C5)N6)nc(OCC56CCCN5CC(F)C6)nc4c3F)c12 (stereo not drawn) + Cc1c(S(C)(=O)=O)c(-c2cc(F)cc(N3CCN(c4ccc(NS(=O)(=O)c5ccc(NC(CCN6CCC(C(=O)OCCCP(=O)(O)O)CC6)CSc6ccccc6)c(S(=O)(=O)C(F)(F)F)c5)cc4)CC3)c2)c(-c2ccc(Cl)cc2)n1C(C)C , test system: HSSY-II complex spheroid growth, percent test/control
5.23
